Test Target: human serotonin transporter (h-SERT) (Homo sapiens, UniProt P31645)
Construct: expressed in transfected cells; host or cells: CHO cells (h-SERT/CHO), Geneticin-selected
Sequence (P31645 whole entry): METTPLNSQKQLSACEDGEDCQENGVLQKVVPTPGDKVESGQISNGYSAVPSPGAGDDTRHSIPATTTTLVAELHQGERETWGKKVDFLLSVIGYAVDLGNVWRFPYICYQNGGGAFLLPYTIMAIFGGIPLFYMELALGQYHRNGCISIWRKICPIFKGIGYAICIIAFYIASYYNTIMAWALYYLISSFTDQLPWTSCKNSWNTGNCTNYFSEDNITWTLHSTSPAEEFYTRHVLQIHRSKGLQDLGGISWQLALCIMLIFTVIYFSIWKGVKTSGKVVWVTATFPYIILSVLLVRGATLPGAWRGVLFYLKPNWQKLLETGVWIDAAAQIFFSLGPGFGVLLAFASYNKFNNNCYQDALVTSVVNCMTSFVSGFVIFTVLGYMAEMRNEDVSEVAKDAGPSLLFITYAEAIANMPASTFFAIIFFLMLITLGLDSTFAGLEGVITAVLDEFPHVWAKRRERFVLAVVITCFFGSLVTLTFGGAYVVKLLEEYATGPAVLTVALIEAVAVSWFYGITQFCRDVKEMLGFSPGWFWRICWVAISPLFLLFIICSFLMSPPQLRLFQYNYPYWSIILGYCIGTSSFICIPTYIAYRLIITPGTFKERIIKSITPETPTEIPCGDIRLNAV
Protocol: Serotonin transporter function inhibition test using [3H]5-HT
Format: cell-based
Experimental Setup: h-SERT/CHO cells, [3H]5-HT uptake approximately 10 nM, 37° C. 10 minutes; read-out: Test Example 5: h-SERT Function Inhibition Constant (Ki)
Experimental: 1-1 Cells Used and Preparation of Cell Suspension CHO cells containing a human serotonin transporter (h-SERT) expressed therein (h-SERT/CHO) were used in the experiment. […] The collected cells were suspended in a buffer solution containing 0.1 mM CaCl2 and 1 mM MgCl2 in PBS (hereinafter, referred to as PBSCM) and stored in ice until use. […]
Measurement Name: Ki (nM)

Recorded results for 4 compounds are shown here.
1. COCCOc1cc(CC2CCN(CCc3ccc4c(c3)C(=O)CCCO4)CC2)ccc1Br : 1.6
2. COCCOc1cc(Br)cc(CC2CCN(CCc3ccc4c(c3)C(=O)CCO4)CC2)c1 : 18
3. COCCOc1cc(CC2CCN(CCc3ccc4c(c3)C(=O)CCC4)CC2)ccc1Br : 1.6
4. COCCOc1cc(CC2CCN(CCc3ccc4c(c3)C(=O)CC4)CC2)ccc1Br : 8.9

(P) COCCOc1cc(CC2CCN(CCc3ccc4c(c3)C(=O)CCO4)CC2)ccc1C
(Q) COCCOc1cc(CC2CCN(CCc3ccc4c(c3)C(=O)CCO4)CC2)ccc1Cl
Returns: the label, P or Q , whose recorded Ki is the lower number. Indicate your choice by writing its label.
Q
(Q: 16 nM, P: 44 nM)

* * *

CYP2D6 (Homo sapiens): recorded IC50 for assorted compounds
Sequence (P10635 whole entry): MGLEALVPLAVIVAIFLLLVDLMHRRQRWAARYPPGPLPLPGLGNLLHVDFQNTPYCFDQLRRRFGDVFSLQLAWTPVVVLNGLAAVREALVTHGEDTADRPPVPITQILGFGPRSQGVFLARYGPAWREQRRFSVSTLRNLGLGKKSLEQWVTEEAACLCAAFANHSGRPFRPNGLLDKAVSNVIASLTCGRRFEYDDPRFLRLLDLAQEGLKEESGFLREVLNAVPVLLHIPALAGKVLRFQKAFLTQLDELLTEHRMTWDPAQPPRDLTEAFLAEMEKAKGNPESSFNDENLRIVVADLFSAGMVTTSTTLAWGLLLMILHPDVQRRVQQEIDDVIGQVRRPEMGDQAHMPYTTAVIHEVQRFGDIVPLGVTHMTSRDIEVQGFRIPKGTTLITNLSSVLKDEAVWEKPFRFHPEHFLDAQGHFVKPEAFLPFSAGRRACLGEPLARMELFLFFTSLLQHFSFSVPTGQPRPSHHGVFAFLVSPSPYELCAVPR
Measurement Name: IC50 (µM)

1. COCCOc1cc(CC2CCN(CCc3ccc4c(c3)C(=O)CCC4)CC2)ccc1Br : 12.8
2. COCCOc1cc(Br)cc(CC2CCN(CCc3ccc4c(c3)C(=O)CCO4)CC2)c1 : 24.6
3. COCCOc1cc(Br)cc(CC2CCN(CCc3ccc4c(c3)C(=O)CC4)CC2)c1 : 36.1
4. COCCOc1cc(CC2CCN(CCc3ccc4c(c3)C(=O)CC4)CC2)ccc1C : 31
5. COCCOc1cc(Br)cc(CC2CCN(CCc3ccc4c(c3)C(=O)CCC4)CC2)c1 : 26.3

* * *

Test Target: human serotonin transporter (h-SERT) (Homo sapiens)
Construct: expressed in transfected cells; host or cells: CHO cells (h-SERT/CHO), Geneticin-selected
Protocol: Screening test using [3H]citalopram binding for evaluating human serotonin reuptake inhibitory effect
Experimental Setup: h-SERT/CHO membrane preparation, [3H]citalopram approximately 2 nM, room temperature 60 minutes; read-out: Test Example 1: h-SERT binding inhibition constant (Ki)
Measurement Name: Ki (nM)

Recorded results for 5 compounds are shown here.
1. COCCOc1cc(CC2CCN(CCc3ccc4c(c3)C(=O)CC4)CC2)ccc1Br : 0.87
2. O=C1CCCc2ccc(CCN3CCC(Cc4ccc(Br)c(OCCO)c4)CC3)cc21 : 9.2
3. COCCOc1cc(CC2CCN(CCc3ccc4c(c3)C(=O)CC4)CC2)ccc1C : 2.8
4. COCCOc1cc(Br)cc(CC2CCN(CCc3ccc4c(c3)C(=O)CCCO4)CC2)c1 : 6.2
5. COCCOc1cc(CC2CCN(CCc3ccc4c(c3)C(=O)CCC4)CC2)ccc1C : 3.1

(P) COCCOc1cc(Cl)cc(CC2CCN(CCc3ccc4c(c3)C(=O)CCO4)CC2)c1
(Q) COCCOc1cc(CC2CCN(CCc3ccc4c(c3)C(=O)CCO4)CC2)ccc1C
(R) COCCOc1cc(CC2CCN(CCc3ccc4c(c3)C(=O)CCCO4)CC2)ccc1Br
(S) O=C1CCCOc2ccc(CCN3CCC(Cc4ccc(Br)c(OCCO)c4)CC3)cc21
Please give the order of these compounds when sorted by Ki, largest value leading. Please list the labels according to the requested order.
S, Q, P, R
(S: 8.5 nM, Q: 4.2 nM, P: 2.4 nM, R: 1.2 nM)

(A) COCCOc1cc(Br)cc(CC2CCN(CCc3ccc4c(c3)C(=O)CCC4)CC2)c1
(B) O=C1CCOc2ccc(CCN3CCC(Cc4ccc(Br)c(OCCO)c4)CC3)cc21
Lab note: check whether A or B shows the higher recorded Ki. Indicate your choice by writing its label.
B
(B: 7.4 nM, A: 2.9 nM)

(I) COCCOc1cc(Br)cc(CC2CCN(CCc3ccc4c(c3)C(=O)CCO4)CC2)c1
(II) O=C1CCc2ccc(CCN3CCC(Cc4ccc(Br)c(OCCO)c4)CC3)cc21
Returns: the label, I or II , whose recorded Ki is the lower number. Indicate your choice by writing its label.
I
